# System: SR
# procedure-summary: NCI tumour cell line growth inhibition, 48 h
Activity calls are given as the source filed them. No stated cut-off is given here; in the data, active = GI50 up to about 1.1 µM and inactive = higher.
Catalogue of GI50 values

Illustrative cases are given below, each with its answer.
- compound: "COc1cc(/C=C/C=C2\\CC(C)C/C(=C\\C=C\\c3ccc(O)c(OC)c3)C2=O)ccc1O (stereo not drawn)"
  value-reported: "1.69 µM (inactive)"
- compound: "COC1OC(=O)C(OC)C(OC)C1OC (stereo not drawn)"
  value-reported: "> 100 µM (inactive)"
- compound: "Cn1cc(NC(=O)c2cc(NC(=O)CCCCCCCC(=O)Nc3cc(C(=O)Nc4cc(C(=O)NCCC(=N)N)n(C)c4)n(C)c3)cn2C)cc1C(=O)NCCC(=N)N"
  value-reported: "5.26 µM (inactive)"
- compound: "Oc1ccc2ccccc2c1-c1c(Nc2ccccc2)ccc2ccccc12"
  value-reported: "16 µM (inactive)"
- compound: "Cn1c(=O)c2nc3c4ccccc4c(=O)n(C)c3nc2n(C)c1=O"
  value-reported: "> 100 µM (inactive)"

Entry `CC(=O)OC(=C(C#N)C#N)c1nccnc1C(C)=O` ; GI50 = 18.5 µM (inactive)

Entry `Cc1ccc2nc(/C(=C/c3ccc(/C=C(\NC(=O)c4ccccc4)c4nc5ccc(C)cc5[nH]4)c(C)c3)NC(=O)c3ccccc3)[nH]c2c1` ; GI50 = 27.2 µM (inactive)

Entry O=C1N2Cc3c4ccc5c3CN3C(=O)N6Cc7c(ccc(c7CN1C6(c1ccccc1)C23c1ccccc1)OCCOCCNCCOCCO4)OCCOCCNCCOCCO5 (stereo not drawn) ; GI50 = 54.7 µM (inactive)

Entry COC(=O)C(=O)C(C(=O)C(=O)Nc1nc2ccc(C)cc2s1)c1nc2ccc([N+](=O)[O-])cc2nc1O (stereo not drawn) ; GI50 = > 100 µM (inactive)

Entry `COCOCC/C=C/C=O` ; GI50 = > 100 µM (inactive)

Entry CCOC(=O)C(NC(=O)CC(C)C)(Nc1ccc(S(=O)(=O)Nc2nc(C)cc(C)n2)cc1)C(F)(F)F (stereo not drawn) ; GI50 = > 100 µM (inactive)

Entry CCCCC(C(=O)C(=O)NC1C2CC3CC(C2)CC1C3)C(=O)C(C)C (stereo not drawn) ; GI50 = > 100 µM (inactive)

Entry `COc1ccc(/C=N/CCC/N=C/c2ccc(OC)cc2O)c(O)c1` ; GI50 = 54.6 µM (inactive)
